All values here come from PubChem BioAssay (NCATS).

- experimental_target: Ubiquitin carboxyl-terminal hydrolase 1 (Homo sapiens) (UniProt O94782)
- Sequence (O94782 whole entry, looked up): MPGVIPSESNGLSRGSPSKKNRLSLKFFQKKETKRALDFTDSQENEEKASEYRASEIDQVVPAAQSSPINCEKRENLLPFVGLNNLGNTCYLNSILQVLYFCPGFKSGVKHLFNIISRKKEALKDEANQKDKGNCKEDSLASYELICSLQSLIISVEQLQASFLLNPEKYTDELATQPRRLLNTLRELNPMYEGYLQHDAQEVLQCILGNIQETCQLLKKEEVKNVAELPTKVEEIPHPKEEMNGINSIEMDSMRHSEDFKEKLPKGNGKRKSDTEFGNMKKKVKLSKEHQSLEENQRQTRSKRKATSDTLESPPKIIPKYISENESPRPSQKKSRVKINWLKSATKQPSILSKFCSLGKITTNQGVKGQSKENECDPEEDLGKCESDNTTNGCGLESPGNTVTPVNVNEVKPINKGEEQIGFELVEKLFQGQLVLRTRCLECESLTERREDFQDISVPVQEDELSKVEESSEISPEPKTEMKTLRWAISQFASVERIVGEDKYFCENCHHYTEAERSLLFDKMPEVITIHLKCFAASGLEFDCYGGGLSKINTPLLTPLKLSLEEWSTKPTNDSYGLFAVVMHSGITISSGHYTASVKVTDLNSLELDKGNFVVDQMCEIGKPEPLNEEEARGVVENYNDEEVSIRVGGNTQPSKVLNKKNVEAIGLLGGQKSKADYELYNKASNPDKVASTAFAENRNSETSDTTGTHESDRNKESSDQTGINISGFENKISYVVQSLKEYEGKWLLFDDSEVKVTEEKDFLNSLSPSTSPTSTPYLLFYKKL
- measurement_notes: Inhibitors of USP1/UAF1: Pilot qHTS (AID 504865); note: nearly all actives have a fitted effect of over 35% in size
- measurement_context: purified USP1/UAF1, Ub-rhodamine cleavage fluorescence; series mostly up to 114 µM
Inconclusive results are not listed. Active and inactive are the calls of the source. Calls come from the whole dose curve; as a rule, active = well fitted inhibition curve with a large enough effect; inconclusive = small, poorly fitted or top-dose-only effect; inactive = flat fitted curve, though single readings scatter. Numbered stars: 1 amine (or outer) side, 2 acyl side, 3 side chain; on linkers, the order of the positions; unused ones are H or OH. Bridge positions count the residues as written; N and C are the ends. Square brackets hold non-standard residues; d marks the D form. Peptide text beside a SMILES is read from it. * marks the point of attachment. ξ: configuration not given here. ΔAla(Z-3-ureido) = NC(=O)N/C=C(\N)C(=O)O; X2 = NC1=NC(O)CC(C(N[*:1])C(=O)[*:2])N1; ξβ3hOrn = NCCCC(N)CC(=O)*; Dap = NC[CH](N)C(=O)O
Labels: true = active, false = inactive

[
  {
    "compound": "NCCCC(N)CC(=O)NC1CNC(=O)C(C2CC(O)N=C(N)N2)NC(=O)/C(=C/NC(N)=O)NC(=O)C(CO)NC(=O)C(CO)NC1=O (stereo not drawn) (ξβ3hOrn-[Dap]SS[ΔAla(Z-3-ureido)][X2]; lactam 1-C; configuration not given here)",
    "class_label": "false"
  },
  {
    "compound": "Nc1nc2c(ncn2C2CC(O)C(CO)O2)c(=O)[nH]1 (stereo not given)",
    "class_label": "false"
  },
  {
    "compound": "OC[C@H]1O[C@@H](n2cnc3c(NCc4ccccc4)ncnc32)[C@H](O)[C@@H]1O",
    "class_label": "false"
  },
  {
    "compound": "CC(=O)c1ccc[nH]1",
    "class_label": "false"
  },
  {
    "compound": "COc1cc(OC)c2c(=O)c(-c3ccccc3)coc2c1",
    "class_label": "false"
  },
  {
    "compound": "COc1ccc2c(=O)c(-c3ccccc3)coc2c1",
    "class_label": "false"
  },
  {
    "compound": "Cc1nnc(SCC2=C(C(=O)O)N3C(=O)C(NC(=O)Cn4cnnn4)[C@@H]3SC2)s1 (stereo not given in full)",
    "class_label": "false"
  },
  {
    "compound": "CC(=O)OC1CC2C(C)(C)C(=O)CC[C@]2(C)C2CC[C@]3(C)C(=CC(=O)OC3c3ccoc3)[C@]12C (stereo not given in full)",
    "class_label": "false"
  },
  {
    "compound": "O=C1CC(c2ccccc2O)Oc2ccc(O)cc21 (stereo not given)",
    "class_label": "false"
  },
  {
    "compound": "CCC(Oc1ccccc1)C(=O)NC1C(=O)N2C1SC(C)(C)C2C(=O)O (stereo not given)",
    "class_label": "false"
  },
  {
    "compound": "CC1CC2C(C(O)C[C@]3(C)C2CC[C@]3(O)C(=O)CO)[C@]2(C)C=CC(=O)C=C12 (stereo not given in full)",
    "class_label": "false"
  },
  {
    "compound": "CC1(C)C(/C=C/C=C/C=C/C=C2\\N(CCCCS(=O)(=O)O)c3ccc4ccccc4c3C2(C)C)=[N+](CCCCS(=O)(=O)[O-])c2ccc3ccccc3c21",
    "class_label": "true"
  },
  {
    "compound": "COc1ccc(-c2c(O)c3c(OC)c4c(cc3oc2=O)OC(C)(C)CC4)cc1",
    "class_label": "false"
  },
  {
    "compound": "CC(CCC(=O)O)C1CCC2C3C(=O)CC4CC(=O)CC[C@@]4(C)C3CC(=O)[C@]12C (stereo not given in full)",
    "class_label": "false"
  },
  {
    "compound": "C=C1C(=O)OC2C[C@@]3(C)CCCC(C)C3=CC12 (stereo not given in full)",
    "class_label": "false"
  },
  {
    "compound": "O=C1C=CC2=C3c4cc(O)c(O)cc4C[C@]3(O)COC2=C1",
    "class_label": "false"
  },
  {
    "compound": "Cn1c(=O)[nH]c(=O)c2[nH]cnc21",
    "class_label": "false"
  },
  {
    "compound": "C=C1c2cccc(O)c2C(O)=C2C(=O)[C@]3(O)C(O)=C(C(N)=O)C(=O)C(N(C)C)C3C(O)C12 (stereo not given in full)",
    "class_label": "true"
  },
  {
    "compound": "COc1cccc2oc(-c3ccccc3)cc(=O)c12",
    "class_label": "false"
  },
  {
    "compound": "C[C@]12CCC(=O)C=C1CCC1C2C(O)C[C@]2(C)C1CC[C@]2(O)C(=O)COC(=O)CCC(=O)O (stereo not given in full)",
    "class_label": "false"
  }
]
